Test: Plasma protein binding assay (rapid equilibrium dialysis), rat plasma
Format: in vitro ADME
Conditions: fraction bound, read-out: plasma protein binding Fb rat (converted)
Can you tell me fraction unbound at 4 h, 10 μM for the items I'm about to list?

Request: State its fraction unbound at 4 h, 10 μM for this compound: `CC(=O)N(c1cc(C(=O)O)cc2[nH]ccc12)[C@@H]1O[C@H](CO)[C@@H](S[C@@H]2O[C@H](CO)[C@H](O)[C@H](n3cc(-c4cccc(F)c4)nn3)[C@H]2O)[C@H](O)[C@H]1O`
Result: 0.1

Request: Find the measured fraction unbound at 4 h, 10 μM of `CC(=O)c1c[nH]c2cc(C(=O)O)cc(N(C(C)=O)[C@@H]3O[C@H](CO)[C@@H](S[C@@H]4O[C@H](CO)[C@H](O)[C@H](n5cc(-c6cccc(F)c6)nn5)[C@H]4O)[C@H](O)[C@H]3O)c12` and report it.
Result: 0.75

Request: Return fraction unbound at 4 h, 10 μM (reported value) for this compound: `CC(=O)N(c1cc(C(=O)O)cc2[nH]ccc12)[C@@H]1O[C@H](CO)[C@@H](O[C@@H]2O[C@H](CO)[C@H](O)[C@H](O)[C@H]2O)[C@H](O)[C@H]1O`
Result: 0.73

Request: Please indicate fraction unbound at 4 h, 10 μM recorded for `CC(=O)N(c1cc(O)cc(C(=O)O)c1)[C@@H]1O[C@H](CO)[C@@H](O[C@@H]2O[C@H](CO)[C@H](O)[C@H](O)[C@H]2O)[C@H](O)[C@H]1O`
Result: 0.94

----------
Assay: Cytotoxicity assay, Jurkat E6.1
Type: cell-based
Conditions: human, Jurkat E6.1 cells, viability dye, flow cytometry
test.readout: CC50 at 24 h

Request: Please look at this compound and report its CC50 at 24 h: OC[C@H]1O[C@@H](S[C@@H]2O[C@H](CO)[C@H](O)[C@H](n3cc(-c4cccc(F)c4)nn3)[C@H]2O)[C@H](O)[C@@H](n2cc(-c3cccc(F)c3)nn2)[C@H]1O [GB0139, reference compound]
Result: > 300 µM

Request: Return value of CC50 at 24 h for input `CC(=O)N(c1cc(C(=O)O)cc2[nH]ccc12)[C@@H]1O[C@H](CO)[C@@H](S[C@@H]2O[C@H](CO)[C@H](O)[C@H](n3cc(-c4cccc(F)c4)nn3)[C@H]2O)[C@H](O)[C@H]1O` , no commentary.
Result: > 300 µM

----------
Hi there, I'd appreciate the recorded pKd for every entry that follows.
Target: human galectin-1 (Gal-1, full length) (Homo sapiens)
Construct: Gal-1 is a prototype galectin consisting of a single CRD and was used in full length; 6xHis tag with TEV protease site (N, cleaved yes); made in house; host or cells: BL21 Escherichia coli (pET-15b)
Sequence (P09382 2-135): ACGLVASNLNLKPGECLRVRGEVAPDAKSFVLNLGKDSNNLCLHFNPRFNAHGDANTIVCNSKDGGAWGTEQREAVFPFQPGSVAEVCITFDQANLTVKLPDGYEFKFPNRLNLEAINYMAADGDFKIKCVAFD
Assay: Competitive fluorescence polarization assay, Gal-1
Assay type: binding
Conditions: competitive fluorescence polarization; mean ± SD; read-out: Kd Gal-1
Notebook: values listed as pKd are -log10 of the concentration (mol/L).

Request: # return recorded pKd for entry `CC(=O)N(c1cccc(-c2ccc(C)o2)c1)[C@@H]1O[C@H](CO)[C@@H](O[C@@H]2O[C@H](CO)[C@H](O)[C@H](O)[C@H]2O)[C@H](O)[C@H]1O`
Result: 3.25

Request: Give the measured pKd for `CC(C)C(=O)N(c1cccc(C(=O)O)c1)[C@@H]1O[C@H](CO)[C@@H](O[C@@H]2O[C@H](CO)[C@H](O)[C@H](O)[C@H]2O)[C@H](O)[C@H]1O`
Result: 3.00

Request: Give me measured pKd, please, for this compound: `COc1ccc(N(C(C)=O)[C@@H]2O[C@H](CO)[C@@H](O[C@@H]3O[C@H](CO)[C@H](O)[C@H](O)[C@H]3O)[C@H](O)[C@H]2O)cc1OC`
Result: 3.44

Request: Supply pKd value. Item: `COc1cc(N(C(C)=O)[C@@H]2O[C@H](CO)[C@@H](O[C@@H]3O[C@H](CO)[C@H](O)[C@H](O)[C@H]3O)[C@H](O)[C@H]2O)cc(OC)c1OC`
Result: 3.62

Request: Look up and report measured pKd for this entry: `CC(=O)c1c[nH]c2cc(C(=O)O)cc(N(C(C)=O)[C@@H]3O[C@H](CO)[C@@H](S[C@@H]4O[C@H](CO)[C@H](O)[C@H](n5cc(-c6cccc(F)c6)nn5)[C@H]4O)[C@H](O)[C@H]3O)c12`
Result: 5.44

Cited source: paper PMC12670426
